The reported numbers originate from patent US12122750B2.

Each entry below carries its recorded Ki.
system_name: rAT2R (Rattus norvegicus (Rat), UniProt P35351)
Sequence (P35351 whole entry): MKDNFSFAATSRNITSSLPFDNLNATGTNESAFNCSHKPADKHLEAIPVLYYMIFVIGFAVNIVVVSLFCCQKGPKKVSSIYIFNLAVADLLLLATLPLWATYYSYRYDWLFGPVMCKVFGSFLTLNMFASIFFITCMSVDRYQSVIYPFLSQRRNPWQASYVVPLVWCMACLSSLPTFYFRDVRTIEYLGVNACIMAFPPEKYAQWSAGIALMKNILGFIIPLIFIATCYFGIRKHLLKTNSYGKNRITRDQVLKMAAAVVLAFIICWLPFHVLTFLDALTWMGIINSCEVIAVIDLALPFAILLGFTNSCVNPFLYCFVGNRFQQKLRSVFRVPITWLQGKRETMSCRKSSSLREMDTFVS
Value expressed in nM; do not type the unit.

{"columns": ["molecule", "unit_label", "Ki"],
 "data": [
  ["O=C(N1CCC(CC(=O)N(c2ccccc2)c2ccccc2)(C(=O)O)CC1)N1CCc2ccccc21", "nM", 2.19],
  ["CN(C(=O)N1CCC(CC(=O)N(c2ccccc2)C(C2CC2)C2CC2)(C(=O)O)CC1)c1ccc(F)cc1", "nM", 0.614],
  ["O=C(CC1(C(=O)O)CCN(c2ccccn2)CC1)N(c1ccccc1)C1CCCC(F)(F)C1 (single isomer, unassigned) [Example 74B]", "nM", 0.67]
]}

Read the next record carefully.
What Ki appears in the records for this molecule with rAT2R (Rattus norvegicus (Rat), UniProt P35351)? COc1ccc2c(c1OCc1ccccc1)C[C@@H](C(=O)O)N(C(=O)C(c1ccccc1)c1ccccc1)C2 [EMA401, Olodanrigan, reference compound] 4.47

----------
system_name: AT2R (Rattus norvegicus (Rat))
assay_comment: AT2R ex vivo autoradiography receptor occupancy in rat adrenal sections after oral dosing
Parameters: species or system Sprague Dawley rats
study_conditions: rat adrenal, oral dose 10 mg/kg; read-out: % RO
# Lookup of reported receptor occupancy at 10 mg/kg keyed by entry
Form entry: value (%) — number only.

Please review the entries below; each comes with its answer.
{"columns": ["compound", "receptor occupancy at 10 mg/kg (%)"],
 "data": [
  ["O=C(N1CCC(CC(=O)N(c2ccccc2)c2ccccc2)(C(=O)O)CC1)N1CCc2ccccc21 [Example 3]", 90.5],
  ["CN(C(=O)N1CCC(CC(=O)N(c2ccccc2)C(C2CC2)C2CC2)(C(=O)O)CC1)c1ccc(F)cc1 [Example 18]", 93],
  ["CCCCCN(C)C(=O)N1CCC(CC(=O)N(c2ccccc2)c2ccccc2)(C(=O)O)CC1 [Example 1]", 44.6]
]}

Shifting focus to the compound that follows.
Record lookup: for AT2R (Rattus norvegicus (Rat)), what receptor occupancy at 10 mg/kg belongs to COc1ccc2c(c1OCc1ccccc1)C[C@@H](C(=O)O)N(C(=O)C(c1ccccc1)c1ccccc1)C2 [EMA401, Olodanrigan, reference compound] ? 17.3

----------
system_name: AT2R (Rattus norvegicus (Rat), UniProt P35351)
Sequence (P35351 whole entry): as the sequence (P35351 whole entry) above
assay_comment: AT2R ex vivo autoradiography receptor occupancy in rat adrenal sections after oral dosing
Set-up: species or system Sprague Dawley rats
study_conditions: rat receptor occupancy
recorded_endpoint: ex vivo IC80 (TER)
Express the result in TER but write the number alone.

{"columns": ["molecule", "unit_label", "value"],
 "data": [
  ["O=C(CC1(C(=O)O)CCN(c2ccccn2)CC1)N(c1ccccc1)C1CCCC(F)(F)C1 (single isomer, unassigned) [Example 74B]", "TER", 5.701],
  ["COc1ccc2c(c1OCc1ccccc1)C[C@@H](C(=O)O)N(C(=O)C(c1ccccc1)c1ccccc1)C2 [EMA401, Olodanrigan, reference compound]", "TER", 0.678],
  ["CCCCCN(C)C(=O)N1CCC(CC(=O)N(c2ccccc2)c2ccccc2)(C(=O)O)CC1 [Example 1]", "TER", 0.800],
  ["O=C(N1CCC(CC(=O)N(c2ccccc2)c2ccccc2)(C(=O)O)CC1)N1CCc2ccccc21 [Example 3]", "TER", 1.525]
]}

Pending molecule:
I have this molecule here, CN(C(=O)N1CCC(CC(=O)N(c2ccccc2)C(C2CC2)C2CC2)(C(=O)O)CC1)c1ccc(F)cc1 [Example 18] , and I need its recorded ex vivo IC80 (TER). 0.731

----------
system_name: AT2R (Rattus norvegicus (Rat))
assay_comment: AT2R ex vivo autoradiography receptor occupancy in rat adrenal sections after oral dosing
Set-up: species or system Sprague Dawley rats
study_conditions: rat receptor occupancy
Decide using ex vivo IC50 (TER): a value greater than or equal to 0.2 TER is Criterion met, a smaller one is Criterion not met.

Reference set (3 entries):
{"columns": ["compound", "assigned_class"],
 "data": [
  ["COc1ccc2c(c1OCc1ccccc1)C[C@@H](C(=O)O)N(C(=O)C(c1ccccc1)c1ccccc1)C2 [EMA401, Olodanrigan, reference compound]", "Criterion not met"],
  ["CN(C(=O)N1CCC(CC(=O)N(c2ccccc2)C(C2CC2)C2CC2)(C(=O)O)CC1)c1ccc(F)cc1", "Criterion not met"],
  ["O=C(CC1(C(=O)O)CCN(c2ccccn2)CC1)N(c1ccccc1)C1CCCC(F)(F)C1 (single isomer, unassigned) [Example 74B]", "Criterion met"]
]}

Assess whether reported ex vivo IC50 (TER) for O=C(N1CCC(CC(=O)N(c2ccccc2)c2ccccc2)(C(=O)O)CC1)N1CCc2ccccc21 sits at 0.2 TER or higher. Criterion met

----------
assay_comment: Plasma concentration of test compound in the receptor occupancy study
Format: in vivo, Sprague Dawley rats
study_conditions: rat, oral dose 3 mg/kg
recorded_endpoint: [plasma, free, nM] (nM)
Numbers only here, please. The scale is nM.

Examples from the recorded data:
{"columns": ["molecule", "[plasma, free, nM], nM"],
 "data": [
  ["CCCCCN(C)C(=O)N1CCC(CC(=O)N(c2ccccc2)c2ccccc2)(C(=O)O)CC1", 0.729],
  ["O=C(N1CCC(CC(=O)N(c2ccccc2)c2ccccc2)(C(=O)O)CC1)N1CCc2ccccc21", 5.99],
  ["CN(C(=O)N1CCC(CC(=O)N(c2ccccc2)c2ccccc2)(C(=O)O)CC1)c1ccc(F)cc1", 0.772]
]}

Please look at the following molecule next.
For COc1ccc2c(c1OCc1ccccc1)C[C@@H](C(=O)O)N(C(=O)C(c1ccccc1)c1ccccc1)C2 [EMA401, Olodanrigan, reference compound] , what is its reported [plasma, free, nM]? 18.9

----------
system_name: recombinant human angiotensin-II receptor subtype 2 (hAT2R) (Homo sapiens (Human))
Sequence (P50052 whole entry): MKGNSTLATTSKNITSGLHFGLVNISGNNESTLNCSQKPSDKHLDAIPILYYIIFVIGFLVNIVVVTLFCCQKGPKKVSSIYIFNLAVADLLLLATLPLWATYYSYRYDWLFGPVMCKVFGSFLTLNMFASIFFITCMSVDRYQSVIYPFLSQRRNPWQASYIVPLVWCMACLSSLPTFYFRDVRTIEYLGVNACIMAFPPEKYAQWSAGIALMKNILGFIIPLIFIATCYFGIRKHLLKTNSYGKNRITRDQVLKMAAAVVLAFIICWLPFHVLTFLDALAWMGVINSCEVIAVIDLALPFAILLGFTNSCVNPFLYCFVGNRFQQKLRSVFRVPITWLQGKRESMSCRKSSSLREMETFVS
assay_comment: Competitive radioligand binding assay (SPA), hAT2R HEK293 membranes
study_conditions: [125I]-Tyr4-Angiotensin-II, read-out: AT2R Ki
Measured log10 of Ki, listed per entry.
Response schema: value (number) is log10 of Ki in units of nM.

{"columns": ["compound", "log10 of Ki"],
 "data": [
  ["O=C(N1CCC(CC(=O)N(c2ccccc2)C2CCCCC2)(C(=O)O)CC1)N1CCc2ccccc21", 0.96],
  ["O=C(N1CCC(CC(=O)N(c2ccccc2)C2CCCC(F)(F)C2)(C(=O)O)CC1)N1CCc2ccc(F)cc21 (racemic) [Example 72]", 0.04],
  ["CN(C(=O)N1CCC(CC(=O)N(c2ccccc2)c2cccc(F)c2)(C(=O)O)CC1)c1ccc(F)cc1", -0.11],
  ["CN(C(=O)N1CCC(CC(=O)N(c2ccccc2)C2CCCC2)(C(=O)O)CC1)c1ccc(F)cc1", 0.42],
  ["CN(C(=O)N1CCC(CC(=O)N(c2ccccc2)C2CCOCC2)(C(=O)O)CC1)c1ccc(C2CC2)cc1", 0.73],
  ["O=C(N1CCC(CC(=O)N(c2ccc(F)cc2)c2ccccc2F)(C(=O)O)CC1)N1CCc2ccccc21", 0.57]
]}

Item under review: CN(C(=O)N1CCC(CC(=O)N(c2ccccc2)C2CCCCC2)(C(=O)O)CC1)c1ccccc1F . Reported log10 of Ki? -0.28

Okay, and CC1CCCC(N(C(=O)CC2(C(=O)O)CCN(C(=O)N(C)c3ccc(F)cc3)CC2)c2ccccc2)C1 (stereo not drawn) ? -0.24

Again, but for O=C(N1CCC(CC(=O)N(c2ccccc2)C2CCCC(F)(F)C2)(C(=O)O)CC1)N1CCc2ccccc21 (racemic) [Example 35] 0.45

Could you do the same for O=C(CC1(C(=O)O)CCN(c2ccccn2)CC1)N(c1ccccc1)C1CCCCC1 , please? 0.72

Same read-out for CC(C)c1ccc(C(=O)N2CCC(CC(=O)N(c3ccccc3)C3CCCC(F)(F)C3)(C(=O)O)CC2)cc1 (racemic) ? 0.97

Lookup O=C(N1CCC(CC(=O)N(c2ccccc2)C2CCCC(F)(F)C2)(C(=O)O)CC1)N1CCc2cccc(F)c21 (racemic) 0.48

What would you report for Cc1ccc(N(C(=O)CC2(C(=O)O)CCN(C(=O)N(C)c3ccc(F)cc3)CC2)c2ccccc2)cc1 ? 0.49

Follow-up item: N#Cc1ccc2c(c1)N(C(=O)N1CCC(CC(=O)N(c3ccccc3)C3CCCCC3)(C(=O)O)CC1)CC2 0.29

----------
The entries below are paired with their reported Ki.
system_name: recombinant human angiotensin-II receptor subtype 2 (hAT2R) (Homo sapiens (Human))
assay_comment: Competitive radioligand binding assay (SPA), hAT2R HEK293 membranes
study_conditions: [125I]-Tyr4-Angiotensin-II, read-out: AT2R Ki
Remember to put the unit after the number in your answer.

Recorded results for 2 compounds are shown here.
{"columns": ["compound", "system_name", "recorded_endpoint", "value"],
 "data": [
  ["CC(C1CC1)N(C(=O)CC1(C(=O)O)CCN(C(=O)N(C)c2ccc(F)cc2)CC1)c1ccccc1 (single isomer, unassigned) [Example 43B]", "recombinant human angiotensin-II receptor subtype 2 (hAT2R) (Homo sapiens (Human))", "Ki", "20.1 nM"],
  ["Cc1ccc(N(C)C(=O)N2CCC(CC(=O)N(c3ccccc3)C3CCCCC3)(C(=O)O)CC2)cc1 [Example 13]", "recombinant human angiotensin-II receptor subtype 2 (hAT2R) (Homo sapiens (Human))", "Ki", "1.44 nM"]
]}

I would be grateful if you could share the reported Ki for CC(C)N(C(=O)N1CCC(CC(=O)N(c2ccccc2)c2ccccc2F)(C(=O)O)CC1)c1ccc(F)cc1 [Example 38] . 6.46 nM

Then this compound: O=C(N1CCC(CC(=O)N(c2ccccc2)C2CCCC(F)(F)C2)(C(=O)O)CC1)N1CCc2ccccc21 (single isomer, unassigned) [Example 35B] 1.03 nM

Please do the same for CN(C(=O)N1CCC(CC(=O)N(c2ccccc2)C2(C3CC3)CC2)(C(=O)O)CC1)c1ccc(F)cc1 [compound 20] as well. 2.11 nM

For CN(C(=O)N1CCC(CC(=O)N(c2ccccc2)c2ccccc2F)(C(=O)O)CC1)C(C1CC1)C1CC1 [Example 55] then? 3.11 nM

Also need CC(C)C(C)N(C(=O)CC1(C(=O)O)CCN(C(=O)N(C)c2ccc(F)cc2)CC1)c1ccccc1 (racemic) [Example 34] , thanks. 4.32 nM

// query: O=C(CC1(C(=O)O)CCN(c2ncncc2C2CC2)CC1)N(c1ccccc1)c1ccccc1 [Example 5] 9.15 nM

Next record, please: O=C(N1CCC(CC(=O)N(c2ccccc2)c2ccccc2F)(C(=O)O)CC1)N1CCc2ccccc21 [Example 56] 2.99 nM

Now consider CN(C(=O)N1CCC(CC(=O)N(c2ccccc2)C2CCCOC2)(C(=O)O)CC1)c1ccc(C2CC2)cc1 (racemic) [Example 45] . 3.12 nM
